Taken from patent US6969713B2.

| Compound | melting point |
| --- | --- |
| Cc1ccccc1NC(=O)CN1CC2CCC(C1)N2S(=O)(=O)c1cccc2nonc12 | 167 to 168 °C |
| Cc1ccccc1NC(=O)CN1CC2CCC(C1)N2c1ncnc2scc(C)c12 | 199 to 200 °C |
| Cc1c(CO)cccc1NC(=O)CN1C[C@@H](C)N(c2ncnc3sccc23)[C@@H](C)C1 [Example 4] | 203 to 204 °C |
| Cc1ccccc1NC(=O)CN1C[C@@H](C)N(c2ncnc3sccc23)[C@@H](C)C1 [Example 6] | 174 to 175 °C |
| C[C@@H]1CN(CC(=O)Nc2nc3ccccc3n2C)C[C@H](C)N1c1ncnc2sccc12 [Example 49] | 200 °C |
| Cc1ccccc1NC(=O)CN1CC2CCC(C1)N2S(=O)(=O)c1ccccc1Cl | 170 to 171 °C |
| Cc1ccccc1NC(=O)CN1CC2CCC(C1)N2S(=O)(=O)c1cccc2nsnc12 | 169 to 170 °C |
| Cc1c(F)cccc1NC(=O)CN1CC2CCC(C1)N2S(=O)(=O)c1ccccc1 | 168 to 169 °C |
| COc1ccc(Cl)cc1S(=O)(=O)N1C2CCC1CN(CC(=O)Nc1ccccc1C)C2 | 180 to 181 °C |
| C[C@@H]1CN(CC(=O)Nc2ccccc2Cl)C[C@H](C)N1c1ncnc2sccc12 [Example 7] | 206 to 207 °C |
| Cc1ccccc1NC(=O)CN1C[C@@H](C)N(S(=O)(=O)c2cccc(NS(C)(=O)=O)c2)[C@@H](C)C1 [Example 64] | 102 to 103 °C |
| Cc1cccc(C)c1NC(=O)CN1CCN(c2ncnc3sccc23)C(C)C1 (racemic) [Example 1] | 184 to 185 °C |
| Cc1ccccc1NC(=O)CN1C[C@@H](C)N(S(=O)(=O)c2cccc(N)c2)[C@@H](C)C1 [Example 57] | 202 to 203 °C |
| Cc1ccccc1NC(=O)CN1CC2CCC(C1)N2S(=O)(=O)c1ccc(Cl)s1 | 150 to 152 °C |
| C[C@@H]1CN(CC(=O)Nc2ccccc2Cl)C[C@H](C)N1c1ncnc2c1ncn2C [Example 8] | 221 to 222 °C |
| Cc1ccccc1NC(=O)CN1C[C@@H](C)N(S(=O)(=O)c2cccc([N+](=O)[O-])c2)[C@@H](C)C1 [Example 56] | 163 to 164 °C |
| C[C@@H]1CN(CC(=O)Nc2ccccc2C(F)(F)F)C[C@H](C)N1c1ncnc2sccc12 [Example 12] | 154 to 155 °C |

* * *

Attribute Measured: melting point

| Chemical String | Result |
| --- | --- |
| Cc1cccc(C)c1NC(=O)CN1C[C@@H](C)N(c2ncnc3sccc23)[C@@H](C)C1 | 186 to 189 °C |
| O=C1Cc2c(cccc2NC(=O)CN2CC3CCC(C2)N3c2ncnc3sccc23)N1 | 265 °C (dec.) |
| CC(=O)Nc1ccc(S(=O)(=O)N2C3CCC2CN(CC(=O)Nc2ccccc2C)C3)cc1 | 205 to 206 °C |
| CC(=O)Nc1cccc(S(=O)(=O)N2[C@H](C)CN(CC(=O)Nc3ccccc3C)C[C@@H]2C)c1 | 236 to 238 °C |
| Cc1ccccc1NC(=O)CN1C[C@@H](C)N(S(=O)(=O)c2cccc(C(N)=O)c2)[C@@H](C)C1 | 124 to 125 °C |
| C[C@@H]1CN(CC(=O)Nc2cccc3cnccc23)C[C@H](C)N1c1ncnc2sccc12 | 213 to 216 °C |
| Cc1ccccc1NC(=O)CN1C[C@@H](C)N(S(=O)(=O)c2cccc(C#N)c2)[C@@H](C)C1 | 152 to 153 °C |
| COc1cccc(S(=O)(=O)N2C3CCC2CN(CC(=O)Nc2ccccc2C)C3)c1 | 163 to 165 °C |
| Cc1cccnc1NC(=O)CN1C[C@@H](C)N(c2ncnc3sccc23)[C@@H](C)C1 | 157 to 159 °C |

* * *

| Chemical String | melting point |
| --- | --- |
| Cc1ccccc1NC(=O)CN1CC2CCC(C1)N2S(=O)(=O)c1cccc(C#N)c1 | 166 to 168 °C |
| C[C@@H]1CN(CC(=O)Nc2nccc3ccccc23)C[C@H](C)N1c1ncnc2sccc12 | 206 to 207 °C |
| C[C@@H]1CN(CC(=O)Nc2cccc3ncccc23)C[C@H](C)N1c1ncnc2sccc12 | 194 to 195 °C |
| Cc1ccccc1NC(=O)CN1C[C@@H](C)N(S(=O)(=O)c2cccc(C(=O)NCCN)c2)[C@@H](C)C1 | 90 to 92 °C |
| Cc1ccc(NS(C)(=O)=O)cc1NC(=O)CN1CC2CCC(C1)N2c1ncnc2scnc12 | 145 to 187 °C |
